Target: recombinant human CD3ε/δ heterodimer (human) (UniProt P07766)
Sequence (P07766 23-126, stated change not applied, chain 1 of 2): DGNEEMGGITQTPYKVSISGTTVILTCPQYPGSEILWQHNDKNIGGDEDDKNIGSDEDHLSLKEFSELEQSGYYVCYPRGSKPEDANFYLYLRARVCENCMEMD
Sequence (P04234 22-105, stated change not applied, chain 2 of 2, further chain): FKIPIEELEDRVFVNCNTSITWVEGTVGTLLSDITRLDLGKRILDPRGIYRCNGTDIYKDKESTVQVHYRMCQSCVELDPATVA
Experiment: BLI (Octet), antigen on anti-Penta His sensor, antibody 50 nM
Could you please report measured log10 of koff for the items listed next?
The base-10 logarithm of koff, taken with koff in s⁻¹, is what appears here.

Data point: G16 (antibody, human IgG1, lambda, L234A L235A, V domains shown) VH: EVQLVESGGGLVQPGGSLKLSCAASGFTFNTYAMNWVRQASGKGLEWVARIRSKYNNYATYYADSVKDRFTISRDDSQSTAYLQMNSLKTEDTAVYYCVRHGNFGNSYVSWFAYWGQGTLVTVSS VL: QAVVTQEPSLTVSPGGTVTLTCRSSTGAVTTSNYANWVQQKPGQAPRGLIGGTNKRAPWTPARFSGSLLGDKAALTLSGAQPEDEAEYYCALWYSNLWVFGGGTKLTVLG ; log10 of koff = -3.70

Data point: B07 (antibody, human IgG1, lambda, L234A L235A, V domains shown) VH: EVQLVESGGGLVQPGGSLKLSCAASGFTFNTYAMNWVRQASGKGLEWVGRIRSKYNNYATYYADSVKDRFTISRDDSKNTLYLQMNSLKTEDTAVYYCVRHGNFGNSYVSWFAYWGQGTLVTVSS VL: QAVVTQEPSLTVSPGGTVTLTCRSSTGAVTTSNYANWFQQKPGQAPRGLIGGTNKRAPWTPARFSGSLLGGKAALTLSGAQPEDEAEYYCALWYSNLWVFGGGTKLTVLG ; log10 of koff = -2.37

Data point: A07 (antibody, human IgG1, lambda, L234A L235A, V domains shown) VH: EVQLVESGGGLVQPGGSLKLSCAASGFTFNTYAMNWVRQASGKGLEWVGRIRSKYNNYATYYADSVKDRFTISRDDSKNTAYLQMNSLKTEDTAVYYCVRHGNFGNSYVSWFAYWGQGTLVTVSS VL: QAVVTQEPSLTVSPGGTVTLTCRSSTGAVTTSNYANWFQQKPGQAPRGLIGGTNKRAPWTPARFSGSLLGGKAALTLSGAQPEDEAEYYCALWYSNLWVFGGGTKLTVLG ; log10 of koff = -2.63

Data point: C07 (antibody, human IgG1, lambda, L234A L235A, V domains shown) VH: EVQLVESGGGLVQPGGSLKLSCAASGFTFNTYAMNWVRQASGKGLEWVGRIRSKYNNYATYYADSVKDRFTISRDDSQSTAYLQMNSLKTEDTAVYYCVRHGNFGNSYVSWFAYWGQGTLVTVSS VL: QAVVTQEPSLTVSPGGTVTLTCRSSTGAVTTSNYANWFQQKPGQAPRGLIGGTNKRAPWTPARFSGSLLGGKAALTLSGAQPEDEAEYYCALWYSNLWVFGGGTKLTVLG ; log10 of koff = -2.46

Data point: D16 (antibody, human IgG1, lambda, L234A L235A, V domains shown) VH: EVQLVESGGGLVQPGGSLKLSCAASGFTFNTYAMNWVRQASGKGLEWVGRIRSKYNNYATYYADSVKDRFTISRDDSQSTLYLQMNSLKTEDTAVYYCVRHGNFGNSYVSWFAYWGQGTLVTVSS VL: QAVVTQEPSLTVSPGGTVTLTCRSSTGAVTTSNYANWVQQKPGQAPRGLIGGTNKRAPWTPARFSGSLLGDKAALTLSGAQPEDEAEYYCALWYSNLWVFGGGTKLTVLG ; log10 of koff = -3.97
